# System: MDA-MB-468 breast
# TEST_PROTOCOL: NCI tumour cell line growth inhibition, 48 h; in the data active means GI50 below about 0.43 µM; inactive means the rest
*1 amine or outer side, *2 acyl side, *3 side chain or, on linkers, in order; H or OH if unused. Where a SMILES comes first, the peptide text is derived from it. Bridges are numbered along the chain shown (N, C = ends). [ ]: non-standard residue; d: D form. The star is where a group is joined. Phe(3-F) = N[C@@H](Cc1cccc(F)c1)C(=O)O; Pro(4R-Me) = C[C@H]1CN[C@H](C(=O)O)C1; aThr = C[C@H](O)[C@H](N)C(=O)O; Pip = O=C(O)[C@@H]1CCCCN1; X8 = CCc1ccc(N*)c(F)c1; CO = O=C([*:1])[*:2]
Hi there, use one of these labels in your reply, thanks! active, inactive

Query: Tell me the assay call for O=C(NNc1nc2cc(F)ccc2n2c(CN3CCC(O)C3)ccc12)c1cnccn1 (centres undefined) please.
Reply: inactive

Query: Tell me the assay call for `Cc1ccc2ccc3c4ccccc4ccc3c2c1` please.
Reply: inactive

Query: Tell me the assay call for `COC(=O)C[C@](O)(CCC(C)C)C(=O)O[C@@H]1C(OC)=C[C@]23CCCN2CCc2cc4c(cc2[C@H]13)OCO4` please.
Reply: active

Query: Tell me the assay call for `COc1cc(OC)c(S(N)(=O)=O)cc1C(=O)/C=C/c1ccc(C)cc1` please.
Reply: inactive

Query: Tell me the assay call for `N#Cc1cc(F)cc(Oc2ccc(S(=O)(=O)C(F)F)c3c2CC(F)(F)[C@H]3O)c1` please.
Reply: inactive

Query: Tell me the assay call for C/C(=C/CCC(C)[C@@H]1CC[C@]2(C)C3=C(CC[C@@]12C)[C@@]1(C)CCC(=O)C(C)(C)[C@@H]1CC3)C(=O)O (some centres undefined) please.
Reply: inactive

Query: Tell me the assay call for CCc1ccc(NC(=O)N[C@@H](Cc2cccc(F)c2)C(=O)N[C@@H]2C(=O)N3CCC[C@H]3C(=O)N3CCCC[C@H]3C(=O)N[C@@H](C)C(=O)N3C[C@H](C)C[C@H]3C(=O)O[C@H]2C)c(F)c1 ({X8-CO}-[Phe(3-F)][aThr]P[Pip]A[Pro(4R-Me)]; ester 2-C) please.
Reply: active

Query: Tell me the assay call for `CC[n+]1c(-c2ccccc2)c2cc(N)ccc2c2ccc(N)cc21` please.
Reply: active

Query: Tell me the assay call for `CCOC(=O)[C@@H](C)C[C@H](Cc1ccccc1)NC(=O)c1csc([C@@H](C[C@H](C(C)C)N(C)C(=O)CNC(=O)[C@H]2CCCCN2C)OC(C)=O)n1` please.
Reply: active

---

# System: MDA-MB-468 breast
# TEST_PROTOCOL: NCI tumour cell line growth inhibition, 48 h
MEASURE: TGI

CCOC(=O)c1cc(C(=O)c2ccc(OC)c(OC)c2)n2c1ccc1ccc3cccnc3c12 | > 100 µM
CO[C@H]1C(=O)[C@]2(C)[C@@H](OC)C[C@H]3OC[C@@]3(OC(C)=O)[C@H]2[C@H](OC(=O)c2ccccc2)[C@]2(O)C[C@H](OC(=O)[C@H](O)[C@@H](NC(=O)OC(C)(C)C)c3ccccc3)C(C)=C1C2(C)C | 0.419 µM
C/C(=N/NC(N)=S)c1ccc(Nc2nc(SCC(C)C)nc(-c3ccc(F)cc3)c2C#N)cc1 | 7.7 µM
Cn1cc(-c2ccc3ncc(-c4ccc(CC(=O)Nc5cc(C(C)(C)C)nn5C)cc4)cc3c2)cn1 | > 20 µM

Query: Given `N#Cc1cc(F)cc(Oc2ccc(S(=O)(=O)C(F)F)c3c2CC(F)(F)[C@H]3O)c1` , report its TGI on MDA-MB-468 breast.
Reply: 66.9 µM

---

# Test system: MDA-MB-468 breast
# TEST_PROTOCOL: NCI tumour cell line growth inhibition, 48 h
*1 amine or outer side, *2 acyl side, *3 side chain or, on linkers, in order; H or OH if unused. Where a SMILES comes first, the peptide text is derived from it. Bridges are numbered along the chain shown (N, C = ends). [ ]: non-standard residue; d: D form. The star is where a group is joined. Phe(3-F) = N[C@@H](Cc1cccc(F)c1)C(=O)O; Pro(4R-Me) = C[C@H]1CN[C@H](C(=O)O)C1; aThr = C[C@H](O)[C@H](N)C(=O)O; Pip = O=C(O)[C@@H]1CCCCN1; X8 = CCc1ccc(N*)c(F)c1; CO = O=C([*:1])[*:2]
Parameter threshold = 1 µM. Response is yes (1) when TGI meets or exceeds it, else no (0).

// below: answered compounds
O=C(Nc1ccc(-n2cc(-c3ccncc3)c(-c3ccc(Cl)c(O)c3)n2)cc1)c1cc(C(F)(F)F)cc(C(F)(F)F)c1 | yes (1)
CN(C)CCCOc1ccc(NC2=C(Cl)C(=O)C(Nc3ccc(OCCCN(C)C)cc3)=C(Cl)C2=O)cc1 | yes (1)
COc1cccc(NC(=O)c2ccc(NC(=O)CCl)s2)c1 | yes (1)
COC(=O)C[C@](O)(CCC(C)C)C(=O)O[C@@H]1C(OC)=C[C@]23CCCN2CCc2cc4c(cc2[C@H]13)OCO4 | no (0)
CCc1ccc(NC(=O)N[C@@H](Cc2cccc(F)c2)C(=O)N[C@@H]2C(=O)N3CCC[C@H]3C(=O)N3CCCC[C@H]3C(=O)N[C@@H](C)C(=O)N3C[C@H](C)C[C@H]3C(=O)O[C@H]2C)c(F)c1 ({X8-CO}-[Phe(3-F)][aThr]P[Pip]A[Pro(4R-Me)]; ester 2-C) | no (0)

Query: Could you verify whether the entry `O=C(CI)NC(=O)NC(=O)NCc1ccccc1` shows TGI of no less than 1 µM?
Reply: yes (1)

Query: Could you verify whether the entry `C#COc1cccc(Nc2ncnc3cc(NC(=O)[C@@H](C)Cl)ccc23)c1` shows TGI of no less than 1 µM?
Reply: yes (1)

Query: Could you verify whether the entry `COc1ccc(-c2cnc(-c3ccncc3-c3cccc(OC)c3)o2)cc1` shows TGI of no less than 1 µM?
Reply: yes (1)
